test system: FXR:RXRa (NR concentration 270 nM, RXRa partner concentration 90 nM); experiment: PBM binding z-score (relative to random genomic background probes); higher = stronger binding; sequences stand for … in GC…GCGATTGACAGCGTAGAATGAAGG
MEASUREMENT_TYPE: PBM binding z-score
No unit in the answer, only the number.

# example entries with known answers
CTCGAACGGTCGTGCTCAGGTGAGTATACCAAAC: -0.183
CCGACTGGGGCAAGGTTACCATCACGCACAGCCA: 0.162
ACTCGGACGACAAAGGTCAGAGCTACGCCAGTGA: 3.61
CATACAGGATCAGCTAGGCCAGAGTAGGGACGGC: -0.21
TCTGCTAGGTCAGTTGGTCAACTAACGAGCTGCC: 0.974

Input CTACCAAGGTGAACACGGTCGTTGATTACTATTC . Output PBM binding z-score: 0.926

Recorded PBM binding z-score (sequence CGTCCAAGGTCAGCACGTCAGTGAAAGCGACGTG ): 5.32

Lab note: measured PBM binding z-score of CCAGACAGGTGAGAAGGTAACTCTGCCTCGATTA was 0.00014

* * *

// reported PBM binding z-score for each item listed
system: RXRa DBDmut IVT, anti-RXR (DBD mutation: RXRa K156A/R161A, NR concentration 90 nM); experiment: PBM binding z-score (relative to random genomic background probes); higher = stronger binding; sequences stand for … in GC…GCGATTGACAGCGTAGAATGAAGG
Form field (numeric): enter value without unit.

Reference set, count: 5
GCTAGTTCGTCAGTAAAAGGTCACACACCGGTCG: 2.51
ACTATTGGTTGAGACGAGGGCAACCGATAGGTTG: 0.116
AGAATGAGGTTATACGTAGCTCAGGGAAGAAAGT: 1.7
CGTCGAAGTTCAACTAAGGTAACGTAAAGCACGC: 3.86
CATACTAGGTCAAGAGGTCAAAGTCCGCTTCCCG: 3.2

# evaluate next
The sequence listed as GCTTACGGCTCAAAGGTTATAGCATGAATAGAAT has a reported PBM binding z-score of 0.213

* * *

system: RARa homodimer (NR concentration 270 nM); experiment: PBM binding z-score (relative to random genomic background probes); higher = stronger binding; sequences stand for … in GC…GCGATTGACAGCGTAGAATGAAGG
MEASUREMENT_TYPE: PBM binding z-score
No unit in the answer, please; the number alone is enough.

The reported PBM binding z-score of the sequence CCTTACGGGTCACGACGTTATAGCACGACGAGCG was 1.39

sequence AGAATGAGGTTATACGTAGATCAAGGAAGAAAGT , PBM binding z-score observed: 0.408

Lab note: measured PBM binding z-score of TAGCCTAGGTCGTGGGCCAGTATACCACGCGAAC was -0.754

Noted for CGAACTAGGTCAGAATAGGACAGTGAAGGATGAT : its PBM binding z-score reads 0.988

Input TCGCCTAGGTCAGATCGGGCCAGTATACGCTATA . Output PBM binding z-score: -0.742

// PBM binding z-score value for CTACCAAGTTGAACAAGGTCGTTGATTACTATTC : 1.44

Entry under test: GGAACGAGGGCAAAGTTGATAGCGTCTGTCGACG . Its PBM binding z-score was -0.604

Reported PBM binding z-score of TCAAGTTGGTCAAAGGTCACACACTCGAAATGCG : 2.74

* * *

system: LXRb:RXRa (NR concentration 270 nM, RXRa partner concentration 90 nM); assay: PBM binding z-score (relative to random genomic background probes); higher = stronger binding; sequences stand for … in GC…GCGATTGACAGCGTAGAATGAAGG
Criterion: PBM binding z-score meeting or surpassing -0.05. Met: class 1. Not met: class 0.

Use the examples below as a reference point.
ATCGAAAGGTTGAAGGTGAGTATACCCACCCGAA: class 1
TCGAGTATGTTAGTCGGGGCATTCAGCCAACATA: class 1
TCATATAGGTAATGGTGAAAGTCGAACGATATGA: class 1
AATACAGGGTTATCGTAGGCCAGAGTACGCACAG: class 1
TCTTGCAGATCAGCAGGTTAAGAAAGCTGGCCAA: class 0

State whether the measured PBM binding z-score reaches -0.05, counting equality as reaching it, for TCTTGTAGATCAGCAGGGTAAGAAAGCTGGCCAA
class 1

Evaluate CCTACTGGGACATTCAGAGGTCATTGATCATATG : PBM binding z-score at minimum -0.05?
class 1

Is PBM binding z-score at least -0.05? Consider GCGACTGGGGCACAGCAGGTTACCATAAGGTTGG
class 0

Hi, just wondering whether CGAACGAGGGCATGAGTTTATAGCAAATGCCGAT shows PBM binding z-score of -0.05 or higher.
class 1

Is reported PBM binding z-score greater than or equal to -0.05 here: GGATCGAGGGCATTCGAGTTGATAGCATGGCGAT
class 0

Say whether CCAACTGGGCCATTCAGAGGTCATTGATCATATG shows PBM binding z-score of -0.05 or more.
class 1

Item GGAACGCGGGCATTCGAGTTGATAGCATGGCGAT with PBM binding z-score of -0.05 or above?
class 0

* * *

system: PPARa:RXRa (NR concentration 270 nM, RXRa partner concentration 90 nM); assay: PBM binding z-score (relative to random genomic background probes); higher = stronger binding; sequences stand for … in GC…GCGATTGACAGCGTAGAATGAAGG
# PBM binding z-score binned as bin A (below 0.8), bin B (0.8 to below 3), bin C (3 or more)

See these solved cases before continuing.
TCATCTAGGTAAACAGGTGAAAGTCCGTAAGTTA: bin B
GCTACTTGGTCAGTAAAAGGTCACACACCGGTCG: bin C
TCTGCTAGGTCAACGATGGTCAGATAATCTGCTA: bin C
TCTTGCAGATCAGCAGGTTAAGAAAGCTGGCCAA: bin A
ATATGTAGGTTATCGGGTAATTCAGTTTGCGCAT: bin C
TCTATTAGTTGATTGGGGCAACCGAAACAGCGGA: bin B
ACAGACAGGTGAGTGAAGGTAACTGAGCTGGACG: bin A
TCTGCTAGGTCAGTTGGTCAGCAAACGAGCTGCC: bin B

Dear colleague, I would appreciate it if you could identify the bin for AGAACGCGGGCACGCTGAGTTGATAGCAGAGTAG and reply at your convenience.
bin A

Band for AGAATGAGCTTACCAAAGATCAGGGAAACGCTTG ?
bin A

* * *

test system: PPARg:RXRa (NR concentration 180 nM, RXRa partner concentration 90 nM); test: PBM binding z-score (relative to random genomic background probes); higher = stronger binding; sequences stand for … in GC…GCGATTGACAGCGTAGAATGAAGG
Classes based on PBM binding z-score: 1 = under 0.9, 2 = from 0.9 up to 2, 3 = 2 and over

Field: example entries. Status: answers known.
CCTCGGAGGACAGAAGGTCATAGCTGTCCGCTTT: 1
CCGACTGGGGCAAGCTTACCATAACGCACAGCCA: 2
CTCGAAAGGTCGTGCTCAGGTGAATATACCAAAC: 3

Band for CCTCGGAGGACAGAAGGTCAGAGTTGTCCGCTTT ?
1

Class label required: CGTCAAAGTTCAACTAAGGTAACGTGAAGCACGC
3

* * *

Listing: PBM binding z-score of selected sequences
system: FXR:RXRa (NR concentration 270 nM, RXRa partner concentration 90 nM); assay: PBM binding z-score (relative to random genomic background probes); higher = stronger binding; sequences stand for … in GC…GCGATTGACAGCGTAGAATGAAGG
The answer should be written as a number, with no unit following it.

Example results:
TAGGCTAGGTCATGCGGGCCAGTATAGTGTCGGC: 3.97
TCTTGTCGATCAGCAGGTTAAGAAAGCTGGCCAA: 0.435
TTACCAAGGTGAAGGTCGTCGATCCCTCTGTAGA: 1.32
ATCTCTAGGTAACAAGATCAGTGAAAGAGAGGAC: 0.203
GCATATAGGTAATACAAGGTGAAAGTCCGATTGT: 2.2
ATATGTAGGTTACCTCCGGGTCATTCAGGCTATG: 2.86
CCAGACAGGTGAAAGGTAACTCATTCTGGTACGC: 0.79
TCTTGTAGATCATGCAGGTTAAGAAAGCCTGAGT: 0.492

The measured PBM binding z-score associated with CGTCCAAGGTCAATGCTAGGTCAGTGGAAGCATT reads 6.99

Looking up GCTCGGAGGAGAAGGTCAGAGCTTTGTCCGTAGA , I see its PBM binding z-score listed as 0.655

Briefly, PBM binding z-score measured for ACAGACAGGTGAGTGAATGTAACTCAGCTGGACG : -0.0424

Entry TTACCAAGGTGAAGGGCGTTGATCCCTCTGTAGA , PBM binding z-score reported as 0.622
